MEASUREMENT TARGET: GPR84 (Homo sapiens (Human), UniProt Q9NQS5)
Sequence (Q9NQS5 whole entry): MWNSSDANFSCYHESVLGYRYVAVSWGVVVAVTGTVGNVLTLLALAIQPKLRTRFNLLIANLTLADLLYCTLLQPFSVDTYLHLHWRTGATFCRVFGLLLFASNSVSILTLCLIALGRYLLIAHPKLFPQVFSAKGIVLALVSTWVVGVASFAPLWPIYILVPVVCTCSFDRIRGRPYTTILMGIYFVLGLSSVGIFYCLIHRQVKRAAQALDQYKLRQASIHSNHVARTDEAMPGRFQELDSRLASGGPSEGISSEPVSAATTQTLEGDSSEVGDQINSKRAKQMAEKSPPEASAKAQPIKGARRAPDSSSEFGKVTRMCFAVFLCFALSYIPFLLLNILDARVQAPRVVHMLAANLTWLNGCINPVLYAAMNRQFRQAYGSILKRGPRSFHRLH
PROTOCOL NOTES: Gai biosensor BRET assay (GPR84-mediated activation of Gai, antagonist mode against agonist ZQ-16)
Assay type: cell-based
ASSAY CONTEXT: compound tested at 10 μM (concentration code D)
Below, each entry is listed with its recorded inhibition at 10 µM.

Cc1cc(OCc2ncccn2)cc(=O)n1[C@H](C)c1ccc(C#CC2CCC2)cc1: > 75%
Cc1cc(OCc2ccn(C)n2)cc(=O)n1[C@H](C)c1ccc(C#CC2CC2)cc1: > 75%
Cc1cc(OCc2ncccn2)cc(=O)n1[C@H](C)c1ccc(C#CC2CC2)cc1F: < 25%

Record Cc1cc(OCc2ncco2)cc(=O)n1[C@H](C)c1ccc(C#CC2CC2)cc1 , field inhibition at 10 µM: > 75%

Input CC(c1ccc(NC(=O)C2CC2)cc1)n1ccc(OCc2ncccn2)cc1=O (stereo not shown) . Output inhibition at 10 µM: < 25%

Looking up COc1cccnc1COc1cc(C)n([C@H](C)c2ccc(C#CC3CC3)cc2)c(=O)c1 , I see its inhibition at 10 µM listed as > 75%

Form: molecule = Cc1cc(OC[C@@H]2COCCO2)cc(=O)n1Cc1cc(C#CC2CC2)ccn1 ; inhibition at 10 µM = < 25%

The molecule listed as Cc1cc(OCc2ncccn2)cc(=O)n1[C@H](C)c1ccc(C#CCN2CC(C)(C)C2)cc1 has a reported inhibition at 10 µM of < 25%

Entry Cc1cc(OC[C@H]2COCCO2)cc(=O)n1[C@H](C)c1ccc(C#CC2CC2)cc1 (stereo in doubt) — recorded inhibition at 10 µM = > 75%

Summary for this molecule, Cc1cc(OCC2CCCCO2)cc(=O)n1C(C)c1ccc(OCC(F)(F)F)cc1 (stereo not shown) : inhibition at 10 µM is < 25%

For Cc1cc(OCc2ncccn2)cc(=O)n1[C@H](C)Cc1cccc(C#CC2CC2)c1 (stereo in doubt) the molecule record lists inhibition at 10 µM as < 25%

Summary for this molecule, Cc1cc(OCc2ncccn2)cc(=O)n1C(C)c1cc(F)c(C#CC2CC2)c(F)c1 (stereo not shown) : inhibition at 10 µM is > 75%

---

Below is a list of entries, each paired with its recorded inhibition at 10 µM value.
MEASUREMENT TARGET: UniProtKB Q9NQS5
PROTOCOL NOTES: Gai biosensor BRET assay (GPR84-mediated activation of Gai, antagonist mode against agonist ZQ-16)
Format: cell-based
ASSAY CONTEXT: compound tested at 10 μM (concentration code D)

Take a look at these entries with their results.
Cc1cc(OCC2COCCO2)cc(=O)n1Cc1cccc(C#CCNc2ccccc2)c1 (centres unmarked): < 25%
Cc1c(C#CC2CC2)cccc1Cn1c(C)cc(OC[C@H]2COCCO2)cc1=O: 25 to 50%

Lab book: inhibition at 10 µM of Cc1cc(OCc2ncccn2)cc(=O)n1[C@H](C)c1ccc(CCC2CC2)cc1 noted as 25 to 50%

Given item CC[C@H](c1ccc(C#CC2CC2)cc1)n1c(C)cc(OCc2ncccn2)cc1=O , the value recorded as its inhibition at 10 µM is > 75%

For reference, reported inhibition at 10 µM for Cc1cc(OCc2ncccn2)cc(=O)n1[C@H](C)c1ccc(Cl)cc1 stands at < 25%

---

The entries below are paired with their reported inhibition at 12.5 µM.
MEASUREMENT TARGET: GPR84 (Homo sapiens (Human), UniProt Q9NQS5)
PROTOCOL NOTES: Gai biosensor BRET assay (GPR84-mediated activation of Gai, antagonist mode against agonist ZQ-16)
Type: cell-based
ASSAY CONTEXT: compound tested at 12.5 μM (concentration code E)

Would you please look over these solved cases?
C(#CC1CC1)c1ccc(-c2cncc(OCC3CCCCO3)c2)cc1 (stereo not drawn) [Compound I-25]: 50 to 75%
Cc1c(-c2ccc(OCC(F)(F)F)cc2)n(C)c(OCC2COCCO2)cc1=O (stereo not drawn) [Compound I-52]: 25 to 50%

Now examine the next entry.
Memo: COc1cc(OCC2COCCO2)cc(-c2ccc(OCc3ccccn3)cc2)n1 (stereo not drawn) [Compound I-15] , reported inhibition at 12.5 µM: < 25%

---

MEASUREMENT TARGET: GPR84 (Homo sapiens (Human), UniProt Q9NQS5)
PROTOCOL NOTES: Gai biosensor BRET assay (GPR84-mediated activation of Gai, antagonist mode against agonist ZQ-16)
Assay type: cell-based
ASSAY CONTEXT: compound tested at 10 μM (concentration code D)
Readings of inhibition at 10 µM for the listed compounds

Recorded results for 3 compounds are shown here.
Cc1cc(OCC2COCCO2)cc(=O)n1Cc1cccc(C#CC(C)(C)C)c1 (stereo not shown) [Compound I-96]: < 25%
Cc1cc(OCC2OCC(C)(C)CO2)cc(=O)n1[C@H](C)c1ccc(C#CC2CC2)cc1 [Compound I-227]: 50 to 75%
Cc1cc(OCc2ncccn2)cc(=O)n1[C@H](C)c1ccc(-c2cnc(C3CC3)nc2)cc1 [Compound I-347]: < 25%

Kindly note the recorded inhibition at 10 µM for Cc1cc(C#CC2CC2)ccc1C(C)n1ccc(OCc2ncccn2)cc1=O (stereo not shown) [Compound I-251] , which is < 25%

---

MEASUREMENT TARGET: GPR84 (Homo sapiens (Human))
PROTOCOL NOTES: Gai biosensor BRET assay (GPR84-mediated activation of Gai, antagonist mode against agonist ZQ-16)
Type: cell-based
ASSAY CONTEXT: compound tested at 10 μM (concentration code D)
RECORDED ENDPOINT: inhibition at 10 µM

Cc1cc(OCc2ccnn2C)cc(=O)n1[C@H](C)c1ccc(C#CC2CC2)cc1 [Compound I-351]: > 75%
Cc1cc(OCc2nccn2C(C)C)cc(=O)n1[C@H](C)c1ccc(C#CC2CC2)cc1 [Compound I-348]: > 75%
Cc1cc(OCc2ncccn2)cc(=O)n1[C@H](C)c1ccc(C#CC2CC2)nc1 [Compound I-288]: 25 to 50%
Cc1cc(OCc2ncccn2)cc(=O)n1Cc1ccc(C#CC2CC2)cc1 [Compound I-237]: 50 to 75%
Cc1cc(OCC2COCCO2)cc(=O)n1C(C)c1ccc(C#CCNc2ccccc2)cc1 (stereo not shown) [Compound I-117]: < 25%
CNC(=O)c1ccc([C@@H](C)n2c(C)cc(OCc3ncccn3)cc2=O)cc1 [Compound I-316]: < 25%

The recorded inhibition at 10 µM for Cc1cc(OCC2COCCO2)cc(=O)n1Cc1ccc(C#CCNCc2ccccc2)cc1 (stereo not shown) [Compound I-123] is < 25%

Per the record, Cc1cc(OCc2ncccn2)cc(=O)n1[C@H](C)c1ccc(C2CC2)cc1 [Compound I-322] has inhibition at 10 µM of < 25%

Kindly note the recorded inhibition at 10 µM for Cc1cc(OCc2ncccn2)cc(=O)n1[C@H](C)c1ccc(C#CCNCc2ccccc2)cc1 [Compound I-263] , which is < 25%

The reported value for Cc1cc(OCc2ncccn2)cc(=O)n1[C@H](C)c1ccc(C#CC(C)C)cc1 [Compound I-298] in terms of inhibition at 10 µM is 50 to 75%

compound Cc1cc(OCc2c(F)ccc[n+]2[O-])cc(=O)n1[C@H](C)c1ccc(C#CC2CC2)cc1 [Compound I-369] , inhibition at 10 µM observed: > 75%

---

MEASUREMENT TARGET: GPR84 (Homo sapiens (Human))
PROTOCOL NOTES: Gai biosensor BRET assay (GPR84-mediated activation of Gai, antagonist mode against agonist ZQ-16)
Assay type: cell-based
ASSAY CONTEXT: compound tested at 10 μM (concentration code D)
Documented inhibition at 10 µM across a set of compounds

Cc1cc(OCC2COCCO2)cc(=O)n1[C@H](C)c1ccc(N2CC(C)(CO)C2)cc1 (stereo partly shown) [Compound I-224]: < 25%
Cc1cc(OC[C@@H]2COCCO2)cc(=O)n1[C@H](C)c1ccc(C#CC2CC2)cc1 [Compound I-6]: > 75%
Cc1cc(OCc2ncccn2)cc(=O)n1CCc1ccc(C#CC2CC2)cc1 [Compound I-238]: > 75%

Consider the additional compound presented here.
Record CCCCCCOc1ccc(C(C)n2c(C)cc(OCc3ncccn3)cc2=O)cc1 (stereo not shown) [Compound I-345] , field inhibition at 10 µM: < 25%

---

MEASUREMENT TARGET: GPR84 (Homo sapiens (Human), UniProt Q9NQS5)
PROTOCOL NOTES: Gai biosensor BRET assay (GPR84-mediated activation of Gai, antagonist mode against agonist ZQ-16)
Format: cell-based
ASSAY CONTEXT: compound tested at 10 μM (concentration code D)
inhibition at 10 µM by entry:

Cc1cc(OCc2ncccn2)cc(=O)n1C(C)c1ccc(C#CC2CC2)s1 (stereo not shown) [Compound I-292]: 25 to 50%
Cc1cc(OC[C@H]2COCCO2)cc(=O)n1[C@@H](C)c1ccc(C#CC2CC2)cc1 [Compound I-44]: 25 to 50%
CC(c1cc(C#CC2CC2)ccn1)n1ccc(OC[C@@H]2COCCO2)cc1=O (stereo partly shown) [Compound I-286]: < 25%

Now for a further compound.
So for Cc1cc(OCc2ccccn2)ccc1-c1cc(OCC2COCCO2)[nH]c(=O)c1 (stereo not shown) [Compound I-120] , the logged inhibition at 10 µM turned out to be < 25%
